B1: Osa-1-4 twister ribozyme (parent)
chain: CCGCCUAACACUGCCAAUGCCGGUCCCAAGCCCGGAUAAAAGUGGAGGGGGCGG

- Variants of: B1
- measurement protocol: self-cleavage, relative activity (ratio to wild type); higher = more cleavage; co-transcriptional
Item-by-item account of self-cleavage
Form field (numeric): enter value without unit.

sequence content: CCGCCUAACACUGCCAAUGCGGGACCCAAGCCCGGAUAAAAGUGGAGGGGGCGG
self-cleavage: 0.06
//
sequence content: CCGCCUAACACUGCCAAUGCCGGUCCCAAGCCCGGAUAAGAGUGGACGGGGCGG
self-cleavage: 0.06

Now for a further variant.
[Q] Indicate the recorded self-cleavage value for this variant: "CCGCCUAACACUGCCAAUGCCGGUCCCAAGCCCGGAUAAAAGUGCAGGGGGCGG"
[A] 0.06
